system under test: PrP^Sc, pathogenic prion protein in brain homogenate of RML PrP^Sc+ Balb-c mice (mouse), P04925
Sequence (P04925 23-230 limits assumed): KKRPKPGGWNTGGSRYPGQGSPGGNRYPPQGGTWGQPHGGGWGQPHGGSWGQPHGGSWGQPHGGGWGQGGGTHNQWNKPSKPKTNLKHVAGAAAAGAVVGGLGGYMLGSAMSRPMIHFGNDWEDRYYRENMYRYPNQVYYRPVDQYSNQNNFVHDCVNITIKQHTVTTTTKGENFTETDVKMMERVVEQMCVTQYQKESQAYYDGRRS
experimental protocol: bead pull-down from PrP^Sc+ mouse brain homogenate; ELISA
Entries and their measured ELISA A405nm follow.
Note: unit A405nm is implicit; provide only the numeric part.

Some entries whose results are on file:
binder: KKRPKGGG (modifications not checked) [Peptide reagent SEQ ID NO:120]
recorded number: 0.631
//
binder: KKRPKGGG (modifications not checked) [Peptide reagent SEQ ID NO:122]
recorded number: 0.503
//
binder: KKRPKGGG (modifications not checked) [Peptide reagent SEQ ID NO:119]
recorded number: 0.61

Now turn to the next binder.
*Q* Look at this binder and give its reported ELISA A405nm. KKRPKGGG (modifications not checked) [Peptide reagent SEQ ID NO:121]
*A* 0.509
